- Tested on: AuroraA-TPX2 (Homo sapiens, UniProt O14965)
- Construct: 20 μL of AuroraA-TPX2 KD GST; GST
- Sequence (O14965 133-383 limits assumed): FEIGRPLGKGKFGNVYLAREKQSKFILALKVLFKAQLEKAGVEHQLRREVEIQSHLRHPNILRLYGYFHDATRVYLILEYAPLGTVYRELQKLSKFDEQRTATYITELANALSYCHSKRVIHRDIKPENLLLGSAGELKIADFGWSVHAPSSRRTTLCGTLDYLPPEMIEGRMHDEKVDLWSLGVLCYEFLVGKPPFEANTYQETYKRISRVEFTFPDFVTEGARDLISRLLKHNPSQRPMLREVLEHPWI
- Sequence (Q9ULW0 1-43 partner limits assumed): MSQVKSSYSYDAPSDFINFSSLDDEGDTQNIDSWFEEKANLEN
- Assay explanation: AuroraA-TPX2 Homogeneous Time Resolved Fluorescent (HTRF) kinase assay
- Assay type: biochemical
- Condition parameters: average; ATP about 1 μM; read-out: AurA_IC50_IP (uM Avg)
Assay metric: IC50

# annotated cases, reported IC50 shown
{"columns": ["Compound", "Tested on", "IC50"],
 "data": [
  ["CS(=O)(=O)CCNc1cc(Oc2ccc(Nc3nnc(-c4ccc(Cl)cc4)c4ccccc34)cc2)ccn1 [Example 29]", "AuroraA-TPX2 (Homo sapiens, UniProt O14965)", "0.1 to 0.5 µM"],
  ["Clc1ccc(-c2nnc(Nc3ccc(Sc4ccnc(/C=C/c5ccccc5)n4)cc3)c3ccccc23)cc1 [Example 35]", "AuroraA-TPX2 (Homo sapiens, UniProt O14965)", "0.1 to 0.5 µM"]
]}

Query block: Which IC50 is reported for this compound? OCCNc1nccc(Sc2ccc(Nc3nnc(-c4ccc(Cl)cc4)c4ccccc34)cc2)n1 [Example 32]
Result block: < 0.1 µM

Query block: Which IC50 is reported for this compound? Cc1ccc(-c2nnc(Nc3ccc(Sc4ccnc(-c5cc6ccccc6[nH]5)n4)cc3)c3ccccc23)cc1N [Example 41]
Result block: 0.1 to 0.5 µM

###

Below, each entry is listed alongside its reported IC50.
- Tested on: AuroraA-TPX2 (Homo sapiens, UniProt O14965)
- Construct: 20 μL of AuroraA-TPX2 KD GST; GST
- Assay explanation: AuroraA-TPX2 Homogeneous Time Resolved Fluorescent (HTRF) kinase assay
- Assay type: biochemical
- Condition parameters: average; ATP about 1 μM; read-out: AurA_IC50_IP (uM Avg)
- Procedure: The Aurora-A HTRF assay begins with Aurora-A in the presence of ATP phosphorylating the biotinylated peptide PLK. The reaction incubates for about 120 min. Detection reagents are added to quench the reaction. […] The assay is quenched and stopped with 160 μL of detection reagent. […] Added to this buffer prior to reading is Steptavidin allophycocyanin (SA-APC) at a final conc in the assay of 0.0005 mg/mL, and europilated anti-phosphoPLK Ab (Eu-anti-PLK) at a final conc of 0.02 nM. […]

{"columns": ["Molecular string", "IC50"],
 "data": [
  ["CNCCNc1nccc(Sc2ccc(Nc3nnc(-c4ccc(Cl)cc4)c4ccccc34)cc2)n1", "1 to 5 µM"],
  ["CNC(=O)c1cc(Oc2ccc(Nc3nnc(-c4ccc(Cl)cc4)c4ccccc34)cc2)ccn1", "0.1 to 0.5 µM"],
  ["Clc1ccc(-c2nnc(Nc3ccc(Oc4ccnc(-c5nc6ccccc6[nH]5)c4)cc3)c3ccccc23)cc1", "0.1 to 0.5 µM"],
  ["CNc1cc(Sc2ccc(Nc3nnc(-c4ccc(Cl)cc4)c4ccccc34)cc2)ccn1", "0.1 to 0.5 µM"],
  ["OCCNc1nccc(Sc2ccc(Nc3nnc(-c4ccccc4)c4ccccc34)cc2)n1", "0.1 to 0.5 µM"]
]}

Query block: Which IC50 is reported for this compound? CNC(=O)c1cc(Sc2ccc(Nc3nnc(-c4ccc(Cl)cc4)c4ccccc34)cc2)ccn1
Result block: 1 to 5 µM

Query block: Which IC50 is reported for this compound? Cc1csc(-c2nnc(Nc3ccc(Sc4ccnc(-c5cc6ccccc6[nH]5)n4)cc3)c3ccccc23)c1
Result block: < 0.1 µM

Query block: Which IC50 is reported for this compound? Clc1ccc(-c2nnc(Nc3ccc(Oc4ccnc(/C=C/c5ccccc5)n4)cc3)c3ccccc23)cc1
Result block: 0.1 to 0.5 µM

Query block: Which IC50 is reported for this compound? Clc1ccc(-c2nnc(Nc3ccc(Oc4ccnc(/C=C/c5ccccc5)c4)cc3)c3ccccc23)cc1
Result block: 0.1 to 0.5 µM

Query block: Which IC50 is reported for this compound? Clc1ccc(-c2nnc(Nc3ccc(Sc4ccnc(-c5cc6ccccc6[nH]5)n4)cc3)c3ccccc23)cc1
Result block: < 0.1 µM

Query block: Which IC50 is reported for this compound? Nc1cc(Sc2ccc(Nc3nnc(-c4ccc(Cl)cc4)c4ccccc34)cc2)ccn1
Result block: 0.1 to 0.5 µM
